# Tested on: left atrium of rats' hearts
# procedure_summary: Functional refractory period prolongation on isolated left atria of rats' hearts in vitro
# Set-up: species or system rat (Sprague-Dawley)
# measurement_parameters: 10 μM
Entries and their FRP prolongation
Write it as a number; the unit ms goes unstated.

# annotated cases, reported FRP prolongation shown
CCc1ccc(S(=O)(=O)N(CC(C)(C)C)[C@H]2c3cc(CC(=O)NCc4ccccc4)ccc3OC(C)(C)[C@@H]2O)cc1 | 17
CC1(C)Oc2ccc(CC(=O)NC3CCCc4ccccc43)cc2C(NS(=O)(=O)c2cccc(F)c2)C1O (mixture of isomers) | 28
CCc1ccc(S(=O)(=O)N[C@@H]2c3cc(CC(=O)N[C@H]4CCCc5ccccc54)ccc3OC(C)(C)[C@H]2O)cc1 | 30

Kindly consider the entry below.
**Query** Which value of FRP prolongation has been reported for CCc1ccc(S(=O)(=O)N[C@@H]2c3cc(CC(=O)NCc4ccccc4)ccc3OC(C)(C)[C@H]2O)cc1 in the records?
**Result** 24

###

# tgt: Kv 1.5-potassium channel (Homo sapiens)
# Sequence (P22460 whole entry): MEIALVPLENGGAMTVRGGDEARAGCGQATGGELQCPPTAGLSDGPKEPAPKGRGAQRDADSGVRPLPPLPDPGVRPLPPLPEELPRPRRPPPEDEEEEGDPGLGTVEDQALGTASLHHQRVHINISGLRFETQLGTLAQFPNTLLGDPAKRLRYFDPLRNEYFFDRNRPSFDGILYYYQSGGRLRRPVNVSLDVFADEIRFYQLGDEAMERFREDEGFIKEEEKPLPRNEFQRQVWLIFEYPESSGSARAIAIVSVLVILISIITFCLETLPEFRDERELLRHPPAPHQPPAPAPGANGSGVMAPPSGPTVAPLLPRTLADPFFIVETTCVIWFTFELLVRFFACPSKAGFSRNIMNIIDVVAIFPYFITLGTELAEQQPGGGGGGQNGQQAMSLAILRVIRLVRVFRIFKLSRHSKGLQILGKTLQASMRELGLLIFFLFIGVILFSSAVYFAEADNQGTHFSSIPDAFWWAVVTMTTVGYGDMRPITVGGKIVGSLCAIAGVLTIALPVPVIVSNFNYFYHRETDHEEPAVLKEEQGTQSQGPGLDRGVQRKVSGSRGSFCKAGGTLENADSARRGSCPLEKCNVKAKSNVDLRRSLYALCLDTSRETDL
# procedure_summary: In-vitro Kv 1.5-potassium channel-blocking effect (Rb+ outflow from CHO cells, atomic absorption spectroscopy)
# measurement_parameters: CHO cells stably expressing Kv 1.5, read-out: IC50 (Kv1.5-potassium channel-blocking effect, concentration of half-maximum inhibition)
IC50 values for the molecules below.
Report only the number, with the unit µM understood.

**Query** Using the record for CCCCNC(=O)Cc1ccc2c(c1)C(N(CC(CC)CC)S(=O)(=O)c1cc(OC)ccc1OC)C(O)C(C)(C)O2 (stereo not drawn) , report its IC50.
**Result** 2.9

**Query** Please look up its IC50: CC(C)CCN(C1c2cc(CC(=O)NCc3ccccc3)ccc2OC(C)(C)C1O)S(=O)(=O)c1ccc2ccccc2c1 (stereo not drawn)
**Result** 5.2

**Query** Form field: reported IC50 of CCCNC(=O)Cc1ccc2c(c1)C(N(CCC(C)C)S(=O)(=O)c1ccc(-c3ccccc3)cc1)C(O)C(C)(C)O2 (stereo not drawn)
**Result** 5.2
